Reference source for all entries: paper PMC4690813

Biological target: recombinant human DAGLα (Homo sapiens, UniProt Q9Y4D2)
Sequence (Q9Y4D2 whole entry): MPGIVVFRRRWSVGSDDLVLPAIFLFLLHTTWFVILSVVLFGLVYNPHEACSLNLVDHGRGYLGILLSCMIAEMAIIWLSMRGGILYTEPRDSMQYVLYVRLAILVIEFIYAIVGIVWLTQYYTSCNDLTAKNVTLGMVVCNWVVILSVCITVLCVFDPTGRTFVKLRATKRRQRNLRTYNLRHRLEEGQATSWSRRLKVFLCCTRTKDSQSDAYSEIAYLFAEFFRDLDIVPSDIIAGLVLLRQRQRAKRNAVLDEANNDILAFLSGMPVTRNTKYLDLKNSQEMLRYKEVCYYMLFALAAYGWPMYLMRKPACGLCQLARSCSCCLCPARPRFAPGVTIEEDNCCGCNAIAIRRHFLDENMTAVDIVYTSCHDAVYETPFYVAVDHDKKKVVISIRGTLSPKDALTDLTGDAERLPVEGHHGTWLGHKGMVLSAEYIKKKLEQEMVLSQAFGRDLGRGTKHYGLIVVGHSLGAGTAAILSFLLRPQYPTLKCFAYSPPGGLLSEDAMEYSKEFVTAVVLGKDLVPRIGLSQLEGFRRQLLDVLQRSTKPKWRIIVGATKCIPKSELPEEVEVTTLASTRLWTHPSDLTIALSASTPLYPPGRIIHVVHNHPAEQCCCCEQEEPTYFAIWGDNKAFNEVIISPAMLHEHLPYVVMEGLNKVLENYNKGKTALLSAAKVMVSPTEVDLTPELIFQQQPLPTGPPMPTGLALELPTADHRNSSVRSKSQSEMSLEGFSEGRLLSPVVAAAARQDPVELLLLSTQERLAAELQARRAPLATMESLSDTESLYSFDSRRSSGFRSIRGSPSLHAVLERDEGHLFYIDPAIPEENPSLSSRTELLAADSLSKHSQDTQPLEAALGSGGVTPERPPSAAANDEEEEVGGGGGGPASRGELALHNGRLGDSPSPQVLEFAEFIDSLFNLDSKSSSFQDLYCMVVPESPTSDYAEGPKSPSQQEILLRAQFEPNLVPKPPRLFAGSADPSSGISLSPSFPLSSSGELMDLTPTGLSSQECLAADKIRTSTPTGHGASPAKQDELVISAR
Assay: colorimetric DAGLα activity assay
Format: biochemical
Conditions: LipE = pIC50 - cLogP

Chemical Structure | LipE
O=C(CCCCCc1ccccc1)c1nc2ncccc2o1 | 3.35
O=C(CCc1ccccc1)c1nc2ncccc2o1 | 2.11
O=C(CCCCCCCCc1ccccc1)c1nc2ncccc2o1 | 2.78
O=C(CCCCCCCc1ccccc1)c1nc2ncccc2o1 | 2.20
O=C(CCCCCCc1ccccc1)c1nc2ncccc2o1 | 1.68
O=C(CCCCc1ccccc1)c1nc2ncccc2o1 | 3.15
O=C(CCCc1ccccc1)c1nc2ncccc2o1 | 2.64
